Assay: in vivo unbound brain to plasma ratio (Kpuu) at steady state
Conditions: rat, brain and plasma (unbound), continuous intravenous infusion over 24 hours, Sprague Dawley rats, free drug in brain vs plasma
# Kp uu at 24 h annotations
Answer with a bare number; do not write a unit.

• O=c1[nH]nc2c3c(cc(F)cc13)NC[C@@H]2c1ccc(F)cc1F [Compound 0114B] = 0.921

Shifting focus to the compound that follows.
Problem: Reported Kp uu at 24 h, compound C[C@@H]1Nc2cc(F)cc3c(=O)[nH]nc(c23)[C@H]1c1ccc(F)cc1F [Compound 0174B] : ____
Result: 0.591

====

Measured MDCK-MDR1 ER of individual entries
Target: human MDR1 (P-glycoprotein; P-gp) (Homo sapiens (Human), UniProt P08183)
Sequence (P08183 whole entry): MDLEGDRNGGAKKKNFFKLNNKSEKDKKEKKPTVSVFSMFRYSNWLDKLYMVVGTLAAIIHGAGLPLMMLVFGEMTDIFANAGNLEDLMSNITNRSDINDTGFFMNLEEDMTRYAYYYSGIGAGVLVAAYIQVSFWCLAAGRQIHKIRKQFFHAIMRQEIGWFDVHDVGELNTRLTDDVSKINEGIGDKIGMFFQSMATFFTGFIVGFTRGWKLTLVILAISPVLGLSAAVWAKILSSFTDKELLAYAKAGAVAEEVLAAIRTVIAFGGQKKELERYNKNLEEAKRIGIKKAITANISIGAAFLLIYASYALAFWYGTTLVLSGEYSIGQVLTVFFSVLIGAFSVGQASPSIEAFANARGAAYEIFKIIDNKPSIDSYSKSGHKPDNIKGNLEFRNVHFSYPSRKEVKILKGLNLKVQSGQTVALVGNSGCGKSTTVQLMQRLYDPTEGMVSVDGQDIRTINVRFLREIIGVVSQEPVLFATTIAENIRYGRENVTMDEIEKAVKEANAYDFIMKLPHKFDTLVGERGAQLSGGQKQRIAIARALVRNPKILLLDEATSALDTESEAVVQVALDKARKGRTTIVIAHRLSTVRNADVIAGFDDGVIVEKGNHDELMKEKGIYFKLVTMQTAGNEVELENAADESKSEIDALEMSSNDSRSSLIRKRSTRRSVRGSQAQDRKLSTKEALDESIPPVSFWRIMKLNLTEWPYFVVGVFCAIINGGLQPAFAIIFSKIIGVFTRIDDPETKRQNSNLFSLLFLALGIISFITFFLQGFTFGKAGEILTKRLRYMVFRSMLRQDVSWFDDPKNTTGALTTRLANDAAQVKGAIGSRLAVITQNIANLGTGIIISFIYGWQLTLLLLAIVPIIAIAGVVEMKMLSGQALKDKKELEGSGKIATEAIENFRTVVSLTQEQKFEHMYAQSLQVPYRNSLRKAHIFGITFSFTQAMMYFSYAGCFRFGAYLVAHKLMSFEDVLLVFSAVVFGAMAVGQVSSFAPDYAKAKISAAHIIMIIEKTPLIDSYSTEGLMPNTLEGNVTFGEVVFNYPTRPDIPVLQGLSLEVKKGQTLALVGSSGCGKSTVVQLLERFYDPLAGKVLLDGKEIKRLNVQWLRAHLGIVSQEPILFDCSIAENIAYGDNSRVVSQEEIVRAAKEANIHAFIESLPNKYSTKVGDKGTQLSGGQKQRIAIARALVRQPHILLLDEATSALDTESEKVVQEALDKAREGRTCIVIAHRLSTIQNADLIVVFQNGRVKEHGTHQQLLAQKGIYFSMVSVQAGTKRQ
Assay: bi-directional MDCK-MDR1 permeability assay
Format: in vitro ADME
Conditions: efflux ratio B→A/A→B
Number, no unit, nothing else.

* CC(C)[C@H]1Nc2cc(F)cc3c(=O)[nH]nc(c23)[C@H]1c1ccccc1Cl [Compound 0222B] | 0.92
* O=c1[nH]nc2c3c(cc(F)cc13)N[C@H](C1CC1)[C@H]2c1ccccc1Cl [Compound 0207B] | 0.532
* Cn1ncnc1[C@H]1CNc2cc(F)cc3c(=O)[nH]nc1c23 [Compound 0200B] | 12.3
* CC[C@@H]1Nc2cc(F)cc3c(=O)[nH]nc(c23)[C@H]1c1ccccc1Cl [Compound 0206A] | 0.695
* O=c1[nH]nc2c3c(cc(F)cc13)NC[C@H]2c1ccccn1 [Compound 0211A] | 2.67
* O=c1[nH]nc2c3c(cc(F)cc13)N[C@@H](C1CCN(C3CCC(F)(F)CC3)CC1)[C@@H]2c1ccc(Cl)cc1F [Compound 0256A] | 3.37

Problem: Provide value of MDCK-MDR1 ER for this record tested with human MDR1 (P-glycoprotein; P-gp) (Homo sapiens (Human), UniProt P08183): C[C@@H]1Nc2cc(F)cc3c(=O)[nH]nc(c23)[C@@H]1[C@H]1CCCCN1C [Compound 0199C]
Result: 17.9

Problem: Form field: MDCK-MDR1 ER recorded for O=c1[nH]nc2c3c(cc(F)cc13)NC[C@@H]2c1ccc(Cl)cc1F [Compound 0189B] with human MDR1 (P-glycoprotein; P-gp) (Homo sapiens (Human), UniProt P08183) (enter value)
Result: 0.538

====

Endpoint: pIC50. System: PARP1 enzyme (Homo sapiens (Human)). Items follow.
Sequence (P09874 whole entry): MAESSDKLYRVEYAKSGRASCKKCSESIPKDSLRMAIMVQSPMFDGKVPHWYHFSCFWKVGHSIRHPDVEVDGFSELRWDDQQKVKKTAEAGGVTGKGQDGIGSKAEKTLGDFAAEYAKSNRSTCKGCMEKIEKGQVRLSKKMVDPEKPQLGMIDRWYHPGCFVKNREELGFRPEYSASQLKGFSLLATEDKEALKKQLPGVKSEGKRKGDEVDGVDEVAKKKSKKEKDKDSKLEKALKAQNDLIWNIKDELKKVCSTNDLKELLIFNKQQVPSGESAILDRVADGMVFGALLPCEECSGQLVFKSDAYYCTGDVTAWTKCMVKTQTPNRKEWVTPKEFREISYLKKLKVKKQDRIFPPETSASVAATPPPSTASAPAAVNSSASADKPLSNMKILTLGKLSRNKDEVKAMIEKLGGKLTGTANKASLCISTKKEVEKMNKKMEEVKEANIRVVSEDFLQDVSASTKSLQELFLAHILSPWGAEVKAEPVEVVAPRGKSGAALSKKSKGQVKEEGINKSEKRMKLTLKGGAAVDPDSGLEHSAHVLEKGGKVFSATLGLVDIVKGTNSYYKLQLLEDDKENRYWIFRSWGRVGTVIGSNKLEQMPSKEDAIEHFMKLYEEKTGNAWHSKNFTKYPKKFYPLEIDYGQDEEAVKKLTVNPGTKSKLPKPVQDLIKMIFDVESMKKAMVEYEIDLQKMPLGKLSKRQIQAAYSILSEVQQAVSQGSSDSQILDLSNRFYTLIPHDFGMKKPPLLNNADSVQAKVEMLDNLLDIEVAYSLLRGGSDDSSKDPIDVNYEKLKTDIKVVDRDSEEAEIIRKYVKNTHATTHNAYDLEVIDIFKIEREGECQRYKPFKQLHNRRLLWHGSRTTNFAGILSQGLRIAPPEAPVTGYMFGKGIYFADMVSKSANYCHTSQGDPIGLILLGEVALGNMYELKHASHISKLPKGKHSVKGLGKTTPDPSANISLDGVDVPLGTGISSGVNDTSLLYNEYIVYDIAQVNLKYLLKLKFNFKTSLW
To interpret pIC50, take it as minus log10 of a concentration measured in moles per litre.

Examples from the recorded data:
• C[C@@H]1Nc2cc(F)cc3c(=O)[nH]nc(c23)[C@H]1c1ccc(Cl)c(F)c1 [Compound 0195B] = 7.59
• CC(=O)N1CCC([C@@H]2Nc3cc(F)cc4c(=O)[nH]nc(c34)[C@H]2c2ccccc2Cl)CC1 [Compound 0223B] = 8.05
• CC(=O)N1CCC([C@H]2Nc3cc(F)cc4c(=O)[nH]nc(c34)[C@@H]2c2ccccc2Cl)CC1 [Compound 0223A] = 5.92

Problem: Record lookup: for PARP1 enzyme (Homo sapiens (Human)), what pIC50 belongs to CC(C)[C@H]1Nc2cc(F)cc3c(=O)[nH]nc(c23)[C@@H]1c1c(F)cc(F)cc1F [Compound 0221A] ?
Result: 8.70

Problem: Request body: readout pIC50, system PARP1 enzyme (Homo sapiens (Human)), query C[C@@H]1Nc2cc(F)cc3c(=O)[nH]nc(c23)[C@H]1[C@H]1CCCN(C)C1 [Compound 0198C] . Return the value.
Result: 7.35

Problem: Lookup: pIC50 / PARP1 enzyme (Homo sapiens (Human)) / CC(C)[C@H]1Nc2cc(F)cc3c(=O)[nH]nc(c23)[C@@H]1c1ccccc1Cl [Compound 0222A]
Result: 7.64

Problem: Recorded pIC50 for N#Cc1ccc([C@H]2c3n[nH]c(=O)c4cc(F)cc(c34)N[C@@H]2C2CCN(C3CCC(F)(F)CC3)CC2)c(F)c1 [Compound 0276B] with PARP1 enzyme (Homo sapiens (Human)), please?
Result: 7.52

The measured values listed here are drawn from patent US20250346599A1.
